TGI values, listed per item
System: LOX IMVI melanoma
Assay: NCI tumour cell line growth inhibition, 48 h

* COc1nc2c(c(=O)n1C)N(C(C)=O)C1C(N2)OCC(OC(C)=O)C1OC(C)=O (configuration not stated) | > 10 µM
* COC1CC(OS(=O)(=O)c2ccc(C)cc2)C(OC(=O)c2ccccc2)C(C)O1 (configuration not stated) | > 100 µM
* COc1ccc(NC2Oc3cc4c(cc3C(c3cccc(OC)c3OC)C2C)OCO4)cc1 (configuration not stated) | > 100 µM
* c1ccc2c(c1)c(NCCCCN1CCCCC1)cc1c3ccccc3c(NCCCCN3CCCCC3)cc21 | 28.2 µM
* N#CC(C#N)=Cc1ccc2c(c1)OC(Cl)O2 (configuration not stated) | 38.2 µM
* O=c1ccc2cc(O)c(O)cc2o1 | > 100 µM
* N#Cc1c(N/N=C/c2c(Cl)cccc2Cl)nc(N)nc1N1CCOCC1 | > 100 µM
* CC1=C(CCC(C)N(C)Cc2ccc(OCCCN3CCCC3)cc2)C(C)(C)CCC1 (configuration not stated) | 3.18 µM
* COC(=O)C1CCC(=O)N1CN(C(C)=O)c1ccccc1 (configuration not stated) | > 100 µM
* C#CCOCC12C=CC(O1)C1C(=O)N(C)C(=O)C12 (configuration not stated) | > 100 µM

## Task Tell me the measured TGI of `Cc1cc(N(CCC#N)CCC#N)ccc1/C=C/C(=O)Nc1cccc(Cl)c1` , please.
## Result > 100 µM

---

Test system: OVCAR-8 ovarian
Assay: NCI tumour cell line growth inhibition, 48 h
log10(TGI) values by entry
Please be aware that the numbers have been log10-transformed from TGI in µM.

• CN(C)CCNC(=O)c1cccc2c(NCC(=O)O)c3ccccc3nc12 = 1.59
• Clc1cc(Cl)c(OCC#CI)cc1Cl = 1.12
• CC1=C(CCC(C)N(C)Cc2ccc(OCCCN3CCCC3)cc2)C(C)(C)CCC1 (stereo not given) = 1.30
• O=[N+]([O-])c1cccc(-c2nc3sccn3c2-c2ccnc(NCCCNS(=O)(=O)c3cccc(F)c3)n2)c1 = 1.25

Here is another molecule to look at.
## Task If you can, please state the reported log10(TGI) value of `COc1cc2nc(N3CCCC3)nc(NCC3CCCCC3)c2cc1OC` .
## Result 0.55

---

Test system: SNB-19 CNS
Assay: NCI tumour cell line growth inhibition, 48 h
Kindly return 1.0 if reported TGI is no lower than 30 µM; return 0.0 if it is lower.

• O=C1C(=O)c2c(nc3ccc(Cl)cn23)-c2ccccc21 = 0.0
• C1=NCCNCCN=Cc2ccc(cc2)OCc2cccc(n2)COc2ccc1cc2 = 1.0
• O=C(c1ccccc1)C(CN1CCOCC1)c1ccccc1 (stereo unspecified) = 0.0
• CCC1CN2CCc3cc(OC)c(OC)cc3C2CC1CC1c2cc(OC)c(OC)cc2CCN1C(=O)C1CCCN1C(=O)OCc1ccccc1 (stereo unspecified) = 1.0
• Cc1ccc(-c2cc(-c3ccc(C)cc3)nc(NCCNc3ccnc4cc(Cl)ccc34)n2)cc1 = 0.0

## Task Can `CCCN(C(=O)c1c(Cl)nnc(Cl)c1C(=O)c1cc(Cl)nnc1Cl)c1cc(Cl)nnc1Cl` be said to have TGI at or above 30 µM?
## Result 1.0

## Task API: above_or_equal(metric=TGI, cutoff=30 µM) for item CN1CCCCC1CCN1CCCCC1 (stereo unspecified)
## Result 1.0

## Task Answer whether TGI of `CCOC(=O)c1c(N2CCCC2)nsc1Nc1ccccc1` is greater than or equal to 30 µM.
## Result 1.0

## Task // inclusive: TGI at least 30 µM? input: COc1ccc(C2CC(c3cc(OC)c(OC)c(OC)c3)=NN2C(C)=O)cc1OCC(=O)Nc1nc2ccc(C(F)(F)F)cc2s1 (stereo unspecified)
## Result 1.0

## Task Determine whether measured TGI meets or exceeds 30 µM for `O=c1oc2ccccc2c2c(=O)c3ccc(OC/C(=N/O)c4ccc(Cl)cc4)cc3oc12`
## Result 1.0

## Task Textbook exercise: given the entry COc1nc(N)c(NC2OC(CO)C(O)C2O)c(=O)[nH]1 (stereo unspecified) , state whether its TGI is greater than or equal to 30 µM.
## Result 1.0

---

System: KM12 colon
Assay: NCI tumour cell line growth inhibition, 48 h; in the data active means GI50 below about 0.43 µM; inactive means the rest
Form entry, call: pick from yes (1) = active, no (0) = inactive

* Cn1c2c(cc(S(=O)(=O)c3ccccc3)c1=O)CCc1c-2cnn1-c1ccc(Cl)cc1 | no (0)
* O=C(/C(=C/c1ccccc1)CN1CCCCC1)c1ccccc1 | no (0)
* O=[N+]([O-])c1cccc(-c2nc3sccn3c2-c2ccnc(NCCCNS(=O)(=O)c3cccc(F)c3)n2)c1 | no (0)
* C[C@@H]1CC[C@H]2C(COCCOCC3=C(C(F)(F)F)O[C@@H]4O[C@@]5(C)CC[C@H]6[C@H](C)CC[C@@H]3[C@@]46OO5)=C(C(F)(F)F)O[C@@H]3O[C@@]4(C)CC[C@@H]1[C@]32OO4 | yes (1)

## Task Dear all, I need the recorded test outcome for `C=C1CC[C@@H]2[C@](C)(COC(C)=O)[C@@H](O)CC[C@@]2(C)[C@@H]1COc1ccc2ccc(=O)oc2c1` , thank you.
## Result no (0)

## Task Dear all, I need the recorded test outcome for `N#Cc1c(N/N=C/c2c(Cl)cccc2Cl)nc(N)nc1N1CCOCC1` , thank you.
## Result no (0)

## Task What did the test return for COC(=O)C(Cc1ccccc1)NC(=O)NC(=O)NC(=O)CI (configuration not stated) ?
## Result no (0)

---

System: ACHN renal
Experiment: NCI tumour cell line growth inhibition, 48 h
TEST_READOUT: TGI

## Task Please report the recorded TGI for `O=C(NCc1cccnc1)NCc1cccnc1` .
## Result > 100 µM

## Task Fill in: TGI of C=CC(=O)N(C)[C@H]1C[C@H]2OC(C)(C1OC)n1c3ccccc3c3c4c(c5c6ccccc6n2c5c31)C(=O)NC4 (some centres not stated) is ___
## Result > 50 µM

## Task Requested field: TGI. Item: CC(=O)OC1C(O)COC(O[C@H]2CC[C@]34C[C@]35CC[C@]3(C)C([C@@]6(C)CC[C@@H](C(C)(C)O)O6)[C@@H](O)C[C@@]3(C)C5C[C@H](OC3OCC(O)C(O)C3O)[C@H]4C2(C)C)C1OC1OCC(O)C(O)C1O (some centres not stated)
## Result > 100 µM

---

Test system: SK-MEL-28 melanoma
Test: NCI tumour cell line growth inhibition, 48 h
TEST_READOUT: TGI

Here is how some compounds turned out for TGI.
• CCCCCCCSc1nc2c(C(=O)OCC)ncn2c2ccccc12 = > 100 µM
• CCOC(=O)C(C)(c1cn(C)c2ccccc12)c1cn(C)c2ccccc12 = > 100 µM
• O=C(NCc1cccnc1)NCc1cccnc1 = > 100 µM
• CC12CCC(C(=O)OC1=O)C(C)(C)O2 (stereo unspecified) = > 100 µM
• O=c1[nH]c2ccccc2nc1-c1c[nH]c2ccccc12 = > 100 µM

## Task Consider the compound `O=C1C(=O)N(c2ccc(Cl)c(Cl)c2)C(=O)C(=O)C1c1nc2ccccc2s1` and give its measured TGI.
## Result > 100 µM

## Task Would you kindly share the measured TGI for `Cc1c(C#N)c(=O)[nH]c(=O)n1CCN1CCN(C(=O)NCCCCCCNC(=O)N2CCN(CCn3c(C)c(C#N)c(=O)[nH]c3=O)CC2)CC1` ?
## Result > 100 µM

## Task Entry under review: COC(=O)C(Cc1ccccc1)NC(=O)NC(=O)NC(=O)CI (stereo unspecified) . Reported TGI?
## Result 13.8 µM

---

Listed next: entries and their corresponding TGI.
Test system: LOX IMVI melanoma
Experiment: NCI tumour cell line growth inhibition, 48 h

The examples below pair each entry with its known result.
* N=C(N)c1ccc(N2CCCN(c3ccc(C(=N)N)cc3)CC2)cc1 | > 100 µM
* CC1C(c2ccccc2)OP(=O)(OC(C#N)c2ccccc2)N1C (stereo unspecified) | > 100 µM
* CCOC(=O)C1Oc2ccc([N+](=O)[O-])c3c2C1(O)CCC3 (stereo unspecified) | > 100 µM
* O=C(O)C/C=C/CC(=O)O | > 100 µM
* C=C1CC2OC2(C(=O)O[C@H]2CCC3[C@@H]4CCC5=CC(=O)CC[C@]5(C)C4CC[C@@]32C)C1=O (stereo partly specified) | 21.1 µM

## Task Consider the compound `C=C1CC[C@@H]2[C@](C)(COC(C)=O)[C@@H](O)CC[C@@]2(C)[C@@H]1COc1ccc2ccc(=O)oc2c1` and give its measured TGI.
## Result > 100 µM

---

System: ACHN renal
Experiment: NCI tumour cell line growth inhibition, 48 h
Parameter TGI: see the listing below.
The figure you give is taken to be in µM; do not add the unit.

Examples from the recorded data:
* CCOc1ccc2nc(NC(=O)c3c/c(=N\NC(=O)C[N+](C)(C)C)c4ccc(O)cc4o3)sc2c1 | 13.8
* COc1cccc(C=Nc2cc(C)ccn2)c1O.COc1cccc(C=Nc2cc(C)ccn2)c1O.[Cu] | 43.8
* COc1cccc(/C=C2/Sc3scc(-c4ccccc4)[n+]3C2=O)c1O | 40.9
* COc1cc(/C=C2/CCS(=O)(=O)c3ccc(C)cc3C2=O)cc(OC)c1OC | 14.2
* O[C@H]1CO[C@H]2[C@@H]1OC[C@@H]2Oc1ccc(Nc2ccnc(Nc3ccc(O[C@H]4CO[C@H]5[C@@H]4OC[C@@H]5O)c(Cl)c3)n2)cc1Cl | 10.6

## Task // TGI lookup, key: `O=C(NN1C(=O)CSC12CCCCC2)c1[nH]c2ccc(F)cc2c1-c1ccccc1`
## Result 42.9

## Task I would be grateful if you could share the reported TGI for COc1ccc(C2=C(Cl)c3cc(OC)c(OC)cc3C2Cl)cc1OC (centres undefined) .
## Result 38.3

## Task Consider the compound shown here: `O=[N+]([O-])c1cccc(-c2nc3sccn3c2-c2ccnc(NCCCNS(=O)(=O)c3cccc(F)c3)n2)c1` What is its recorded TGI?
## Result 11.2
